Origin of the recorded values: BindingDB's records for doi:10.1021/acs.jmedchem.9b00963

assay: Inhibition of BCRP (unknown origin) expressed in human HEK293/R2 cells assessed as potentiation of mitoxantrone-induced cytotoxicity after 5 days by MTS/PMS assay
Experimental Readout: pEC50
Answers are plain numbers, as −log10 of the molar value.

What the record says about COC(=O)c1cccc(COc2c(-c3ccc(OCCOCCn4cc(-c5cccc(-c6cn(CCOCCOc7ccc(-c8oc9ccccc9c(=O)c8OCc8cccc(C(=O)OC)c8)cc7)nn6)c5)nn4)cc3)oc3ccccc3c2=O)c1 : pEC50 is 7.96

* * *

test: Inhibition of BCRP (unknown origin) transfected in HEK293/R2 cells assessed as reversal of topotecan resistance after 5 days by MTS/PMS assay
Experimental Readout: pEC50
Answers are plain numbers, as −log10 of the molar value.

[
  {
    "Smiles String": "Cc1ccc2oc(-c3ccc(OCCOCCOCCn4cc(CCCCOc5ccc6c(=O)cc(-c7ccccc7)oc6c5)nn4)cc3)cc(=O)c2c1",
    "pEC50": 7.48
  },
  {
    "Smiles String": "Cc1ccc2oc(-c3ccc(OCCCCc4cn(CCOCCOc5ccc(-c6oc7ccccc7c(=O)c6OCc6ccccc6)cc5)nn4)cc3)cc(=O)c2c1",
    "pEC50": 7.48
  },
  {
    "Smiles String": "O=c1cc(-c2ccccc2)oc2cc(OCCn3cc(CN(Cc4ccccc4)Cc4cn(CCOc5ccc6c(=O)cc(-c7ccccc7)oc6c5)nn4)nn3)ccc12",
    "pEC50": 6.61
  }
]

Would you be so kind as to report pEC50 for each listed record?
1. O=c1cc(-c2ccccc2)oc2cc(OCCCCc3cn(CCOCCOCCOc4ccc(-c5cc(=O)c6cc(F)ccc6o5)cc4)nn3)ccc12
2. O=c1cc(-c2ccccc2)oc2cc(OCCOCc3cn(CCOCCOCCOc4ccc(-c5oc6ccccc6c(=O)c5OCc5ccccc5)cc4)nn3)ccc12
3. O=c1cc(-c2ccccc2)oc2cc(OCCOCCn3cc(COCCOc4ccc5c(=O)cc(-c6ccccc6)oc5c4)nn3)ccc12

Completion:
7.36
7.42
6.71

Would you be so kind as to report pEC50 for each listed record?
1. O=c1cc(-c2ccccc2)oc2cc(OCCOCCOCCn3cc(COCCOc4ccc5c(=O)cc(-c6ccccc6)oc5c4)nn3)ccc12
2. O=c1cc(-c2ccccc2)oc2cc(OCCN(Cc3ccccc3)Cc3cn(CCOCCOCCOc4ccc(-c5oc6ccccc6c(=O)c5OCc5ccccc5)cc4)nn3)ccc12

Completion:
1. 6.84
2. 6.81

* * *

assay: Inhibition of P-gp (unknown origin) expressed in human LCC6MDR cells assessed as reversal of paclitaxel resistance after 5 days by MTS/PMS assay
Experimental Readout: pEC50
Give bare numbers, as −log10 of the molar value.

Record excerpt, results attached:
[
  {
    "Smiles String": "Cc1ccc2oc(-c3ccc(OCCOCCOCCn4cc(CN(CCOc5ccc6c(=O)cc(-c7ccccc7)oc6c5)Cc5ccccc5)nn4)cc3)cc(=O)c2c1",
    "pEC50": 6.68
  },
  {
    "Smiles String": "O=c1cc(-c2ccccc2)oc2cc(OCCCCc3cn(CCOCCOCCOc4ccc(-c5oc6ccccc6c(=O)c5OCc5ccccc5)cc4)nn3)ccc12",
    "pEC50": 6.56
  },
  {
    "Smiles String": "Cc1ccc2oc(-c3ccc(OCCCCc4cn(CCOCCOc5ccc(-c6oc7ccccc7c(=O)c6OCc6ccccc6)cc5)nn4)cc3)cc(=O)c2c1",
    "pEC50": 6.22
  }
]

Would you be so kind as to report pEC50 for each listed record?
1. O=c1cc(-c2ccccc2)oc2cc(OCCN(Cc3ccccc3)Cc3cn(CCOCCOc4ccc(-c5cc(=O)c6cc(F)ccc6o5)cc4)nn3)ccc12
2. O=c1cc(-c2ccccc2)oc2cc(OCCN(Cc3ccccc3)Cc3cn(CCOc4ccc5c(=O)cc(-c6ccccc6)oc5c4)nn3)ccc12
3. O=c1c(OCc2ccccc2)c(-c2ccc(OCCOCCOCCn3cc(CN(Cc4ccccc4)Cc4cn(CCOCCOCCOc5ccc(-c6oc7ccccc7c(=O)c6OCc6ccccc6)cc5)nn4)nn3)cc2)oc2ccccc12
4. Cc1ccc2oc(-c3ccc(OCCCCc4cn(CCOc5ccc6c(=O)cc(-c7ccccc7)oc6c5)nn4)cc3)cc(=O)c2c1
5. O=c1cc(-c2ccccc2)oc2cc(OCCOCc3cn(CCOCCOc4ccc(-c5oc6ccccc6c(=O)c5OCc5ccccc5)cc4)nn3)ccc12
6. COC(=O)c1cccc(COc2c(-c3ccc(OCCOCCn4cc(CN5CCCN(Cc6cn(CCOCCOc7ccc(-c8oc9ccccc9c(=O)c8OCc8cccc(C(=O)OC)c8)cc7)nn6)CC5)nn4)cc3)oc3ccccc3c2=O)c1

Completion:
1. 6.55
2. 6.05
3. 6.25
4. 6.69
5. 6.46
6. 6.24

* * *

assay: Inhibition of MRP1 in human 2008/MRP1 cells assessed as reduction in cell viability after 5 days by MTS/PMS assay
Experimental Readout: IC50 (nM)
Give bare numbers, in nM.

What the record says about O=C1c2c(O)ccc(O)c2C(=O)c2c(NCCNCCO)ccc(NCCNCCO)c21 : IC50 is 28

* * *

experiment: Inhibition of BCRP in human MCF7/MX100 cells assessed as reversal of topotecan resistance after 5 days by MTS/PMS assay
Can you tell me pEC50 for the items I'm about to list?
One number for each entry, as −log10 of the molar value.

Record excerpt, results attached:
[
  {
    "Smiles String": "O=c1cc(-c2ccccc2)oc2cc(OCCN(Cc3ccccc3)Cc3cn(CCOc4ccc5c(=O)cc(-c6ccccc6)oc5c4)nn3)ccc12",
    "pEC50": 6.55
  },
  {
    "Smiles String": "COC(=O)c1cccc(COc2c(-c3ccc(OCCOCCn4cc(CCCOc5ccc(-c6cc(=O)c7ccc(F)cc7o6)cc5)nn4)cc3)oc3ccccc3c2=O)c1",
    "pEC50": 8.19
  },
  {
    "Smiles String": "Cc1ccc2oc(-c3ccc(OCCCCc4cn(CCOCCOc5ccc(-c6cc(=O)c7cc(F)ccc7o6)cc5)nn4)cc3)cc(=O)c2c1",
    "pEC50": 7.19
  },
  {
    "Smiles String": "O=c1cc(-c2ccccc2)oc2cc(OCCCc3cn(CCOCCOCCOc4ccc(-c5oc6ccccc6c(=O)c5OCc5ccccc5)cc4)nn3)ccc12",
    "pEC50": 7.11
  },
  {
    "Smiles String": "COC(=O)c1cccc(COc2c(-c3ccc(OCCOCCn4cc(CN(Cc5cn(CCOCCOc6ccc(-c7oc8ccccc8c(=O)c7OCc7cccc(C(=O)OC)c7)cc6)nn5)c5ccccc5)nn4)cc3)oc3ccccc3c2=O)c1",
    "pEC50": 8.66
  }
]

What the record says about O=c1cc(-c2ccc(OCCCc3cn(CCOCCOc4ccc5c(=O)cc(-c6ccccc6)oc5c4)nn3)cc2)oc2cc(F)ccc12 : pEC50 is 8.10

* * *

Can you tell me pEC50 for the items I'm about to list?
test: Inhibition of BCRP (unknown origin) transfected in HEK293/R2 cells assessed as reversal of topotecan resistance after 5 days by MTS/PMS assay
Give bare numbers, as −log10 of the molar value.

Record excerpt, results attached:
[
  {
    "Smiles String": "O=c1cc(-c2ccc(OCCCc3cn(CCOCCOc4ccc5c(=O)cc(-c6ccccc6)oc5c4)nn3)cc2)oc2cc(F)ccc12",
    "pEC50": 8.19
  },
  {
    "Smiles String": "O=c1cc(-c2ccc(OCCOCCOCCn3cc(CCCCOc4ccc5c(=O)cc(-c6ccccc6)oc5c4)nn3)cc2)oc2ccccc12",
    "pEC50": 7.33
  },
  {
    "Smiles String": "Cc1ccc2oc(-c3ccc(OCCOCCOCCn4cc(COCCOc5ccc6c(=O)cc(-c7ccccc7)oc6c5)nn4)cc3)cc(=O)c2c1",
    "pEC50": 7.05
  }
]

// below: pEC50 requested for another compound
What the record says about O=c1cc(-c2ccc(OCCCc3cn(CCOCCOCCOc4ccc5c(=O)cc(-c6ccccc6)oc5c4)nn3)cc2)oc2cc(F)ccc12 : pEC50 is 7.55

* * *

assay: Inhibition of BCRP (unknown origin) transfected in HEK293/R2 cells assessed as reversal of topotecan resistance after 5 days by MTS/PMS assay
Binarize EC50 at 0.04 µM; below is true, at or above is false.

Solved cases below.
[
  {
    "Smiles String": "COC(=O)c1cccc(COc2c(-c3ccc(OCCOCCOCCn4cc(CN5CCN(Cc6cn(CCOCCOCCOc7ccc(-c8oc9ccccc9c(=O)c8OCc8cccc(C(=O)OC)c8)cc7)nn6)CC5)nn4)cc3)oc3ccccc3c2=O)c1",
    "Group": "true"
  },
  {
    "Smiles String": "O=c1cc(-c2ccccc2)oc2cc(OCCCc3cn(CCOCCOCCOc4ccc5c(=O)cc(-c6ccccc6)oc5c4)nn3)ccc12",
    "Group": "false"
  },
  {
    "Smiles String": "Cc1ccc2oc(-c3ccc(OCCCCc4cn(CCOCCOCCOc5ccc(-c6cc(=O)c7ccccc7o6)cc5)nn4)cc3)cc(=O)c2c1",
    "Group": "false"
  }
]

Prompt: I wonder whether COC(=O)c1cccc(COc2c(-c3ccc(OCCOCCn4cc(CCCc5cn(CCOCCOc6ccc(-c7oc8ccccc8c(=O)c7OCc7cccc(C(=O)OC)c7)cc6)nn5)nn4)cc3)oc3ccccc3c2=O)c1 has EC50 below 0.04 µM. Can you tell?
Completion: true

Prompt: I wonder whether O=c1cc(-c2ccccc2)oc2cc(OCCCCc3cn(CCOCCOc4ccc(-c5cc(=O)c6cc(F)ccc6o5)cc4)nn3)ccc12 has EC50 below 0.04 µM. Can you tell?
Completion: false

Prompt: I wonder whether O=c1cc(-c2ccccc2)oc2cc(OCCCc3cn(CCOCCOCCOc4ccc(-c5oc6ccccc6c(=O)c5OCc5ccccc5)cc4)nn3)ccc12 has EC50 below 0.04 µM. Can you tell?
Completion: false

Prompt: I wonder whether O=c1c(OCc2ccccc2)c(-c2ccc(OCCOCCOCCn3cc(CN(Cc4ccccc4)Cc4cn(CCOCCOCCOc5ccc(-c6oc7ccccc7c(=O)c6OCc6ccccc6)cc5)nn4)nn3)cc2)oc2ccccc12 has EC50 below 0.04 µM. Can you tell?
Completion: true

Prompt: I wonder whether O=c1cc(-c2ccc(OCCCc3cn(CCOCCOCCOc4ccc(-c5cc(=O)c6cc(F)ccc6o5)cc4)nn3)cc2)oc2cc(F)ccc12 has EC50 below 0.04 µM. Can you tell?
Completion: true

Prompt: I wonder whether COC(=O)c1cccc(COc2c(-c3ccc(OCCOCCOCCn4cc(CCCOc5ccc(-c6cc(=O)c7ccc(F)cc7o6)cc5)nn4)cc3)oc3ccccc3c2=O)c1 has EC50 below 0.04 µM. Can you tell?
Completion: true

Prompt: I wonder whether O=c1cc(-c2ccccc2)oc2cc(OCCCc3cn(CCOCCOc4ccc5c(=O)cc(-c6ccccc6)oc5c4)nn3)ccc12 has EC50 below 0.04 µM. Can you tell?
Completion: false

Prompt: I wonder whether O=c1cc(-c2ccccc2)oc2cc(OCCCCc3cn(CCOCCOCCOc4ccc5c(=O)cc(-c6ccccc6)oc5c4)nn3)ccc12 has EC50 below 0.04 µM. Can you tell?
Completion: false

Prompt: I wonder whether O=c1cc(-c2ccc(OCCCc3cn(CCOCCOCCOc4ccc(-c5oc6ccccc6c(=O)c5OCc5ccccc5)cc4)nn3)cc2)oc2cc(F)ccc12 has EC50 below 0.04 µM. Can you tell?
Completion: true

Prompt: I wonder whether Cc1ccc2oc(-c3ccc(OCCCCc4cn(CCN(CCOc5ccc6c(=O)cc(-c7ccccc7)oc6c5)Cc5ccccc5)nn4)cc3)cc(=O)c2c1 has EC50 below 0.04 µM. Can you tell?
Completion: false
